Target: Human immunodeficiency virus type 1 protease (Human immunodeficiency virus 1)
Starred links: 1 amine or outer side, 2 acyl side, 3 side chain; linkers in the order of their positions; H or OH if unused. Non-standard residues stand in square brackets, D forms with d. Residues, ends and D or L forms follow the SMILES beside them. 1Nal = N[C@@H](Cc1cccc2ccccc12)C(=O)O; NHCH2CH2SCH2CO = O=C(CSCCN[*:1])[*:2]; NMeF = CN[C@@H](Cc1ccccc1)C(=O)O; hCha = N[C@@H](CCC1CCCCC1)C(=O)O; αMeV = CC(C)[C@](C)(N)C(=O)O; αMeP = C[C@@]1(C(=O)O)CCCN1
assayEndpoint: IC50
Write the figure, then the unit, nothing else.

# annotated cases, reported IC50 shown
>>> measuredvalue("CC(C)C[C@@H]1NC(=O)[C@H](C(C)C)NC(=O)[C@]2(C)CCCN2C(=O)[C@H](C(C)C)NC(=O)[C@H](Cc2ccccc2)NC(=O)CSCCNC(=O)[C@H](CC(C)C)NC(=O)[C@H](Cc2ccccc2)N(C)C(=O)[C@H](CC(C)C)NC(=O)[C@H](CCC2CCCCC2)NC1=O (cyclo(FV[αMeP]VL[hCha]L[NMeF]L[NHCH2CH2SCH2CO]))")
"2.3 nM"
>>> measuredvalue("CC(C)C[C@@H]1NC(=O)[C@H](C(C)C)NC(=O)[C@]2(C)CCCN2C(=O)[C@H](C(C)C)NC(=O)[C@H](Cc2ccccc2)NC(=O)CSCCNC(=O)[C@H](C)NC(=O)[C@H](Cc2ccccc2)N(C)C(=O)[C@H](CC(C)C)NC(=O)[C@H](CCC2CCCCC2)NC1=O (cyclo(A[NHCH2CH2SCH2CO]FV[αMeP]VL[hCha]L[NMeF]))")
"0.28 nM"

Please examine the following record next.
Lab note: need IC50 with Human immunodeficiency virus type 1 protease (Human immunodeficiency virus 1) for entry CC(C)C[C@@H]1NC(=O)[C@](C)(C(C)C)NC(=O)[C@@H]2CCCN2C(=O)[C@H](C(C)C)NC(=O)[C@H](Cc2ccccc2)NC(=O)CSCCNC(=O)[C@H](Cc2ccccc2)N(C)C(=O)[C@H](CC(C)C)NC(=O)[C@H](Cc2cccc3ccccc23)NC1=O (cyclo([1Nal]L[NMeF][NHCH2CH2SCH2CO]FVP[αMeV]L)) , please look it up. 0.44 nM

Taken from ChEMBL document CHEMBL5113542.
